Hi there, I'd appreciate the recorded IC50, p42 for every entry that follows.
Biological target: vascular endothelial growth factor (VEGF) (UniProt P15692-4 27-191, limits assumed)
Sequence (P15692 other isoform, or with tags, fused parts or gaps limits assumed): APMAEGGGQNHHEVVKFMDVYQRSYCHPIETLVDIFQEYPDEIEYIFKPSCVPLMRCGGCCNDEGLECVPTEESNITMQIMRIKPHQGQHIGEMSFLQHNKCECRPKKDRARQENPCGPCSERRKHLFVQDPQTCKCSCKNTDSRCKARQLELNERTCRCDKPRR
Assay: cell-based or functional assay
Positions of bridges follow the written chain, without caps; N, C: chain ends. Non-standard residues stand in square brackets, D forms with d.

Query: # get_value(readout='IC50, p42', item= GFGD (designed binder, linker N-C via 3‑aminomethyl‑5‑aminobenzamide; also: four loops on O4-Calix calix[4]arene scaffold) [GFB-101] )
Reply: > 100 µM

Query: # get_value(readout='IC50, p42', item= GDFD (designed binder, linker N-C via 3‑aminomethyl‑5‑aminobenzamide; also: four loops on But-Calix calix[4]arene scaffold) [GFB-105] )
Reply: > 100 µM

Query: # get_value(readout='IC50, p42', item= ADGD (designed binder, linker N-C via 3‑aminomethyl‑5‑aminobenzamide; also: four loops on But-Calix calix[4]arene scaffold) [GFB-112] )
Reply: 10 µM

Query: # get_value(readout='IC50, p42', item= [dA]DGD (designed binder, linker N-C via 3‑aminomethyl‑5‑aminobenzamide; also: four loops on But-Calix calix[4]arene scaffold) [GFB-108] )
Reply: 50 µM
